The reported numbers originate from the supplement of paper PMC10307832.

System: NCI-H2085
Experiment: relative viability (nuclei count vs DMSO), 5 days (fraction); higher = more cells survive
Conditions: first compound 0.03162 µM
Simple rule here: relative viability less than 0.5 is Satisfied, otherwise Not satisfied.

Check out these entries, answers already filled in.
INSERT INTO measurements (compound, label) VALUES
  ('NC(=O)Nc1cc(-c2cccc(F)c2)sc1C(=O)N[C@H]1CCCNC1 [AZD7762] + Cc1nc(Nc2ncc(C(=O)Nc3c(C)cccc3Cl)s2)cc(N2CCN(CCO)CC2)n1 [Dasatinib] (partner 0.075 µM)', 'Satisfied'),
  ('NC(=O)Nc1cc(-c2cccc(F)c2)sc1C(=O)N[C@H]1CCCNC1 [AZD7762] + Cc1nc(NC(=O)N2CCC[C@H]2C(N)=O)sc1-c1ccnc(C(C)(C)C(F)(F)F)c1 [Alpelisib] (partner 2 µM)', 'Not satisfied'),
  ('NC(=O)Nc1cc(-c2cccc(F)c2)sc1C(=O)N[C@H]1CCCNC1 [AZD7762] + CCNC(=O)c1noc(-c2cc(C(C)C)c(O)cc2O)c1-c1ccc(CN2CCOCC2)cc1 [Luminespib] (partner 0.01 µM)', 'Satisfied');

Let us examine a further case.
Lab note: relative viability threshold 0.5. Does this compound come in strictly under it? NC(=O)Nc1cc(-c2cccc(F)c2)sc1C(=O)N[C@H]1CCCNC1 [AZD7762] + O=C(CCCCCCC(=O)Nc1ccccc1)NO [Vorinostat] (partner 1 µM)
Not satisfied
